# Tested on: NCI/ADR-RES ovarian
# assay-protocol: NCI tumour cell line growth inhibition, 48 h
reported-property: TGI

compound | reported-property | experimental-value
O=C(/C=C(\Nc1ccccc1O)c1ccc(Br)cc1)C(Cl)(Cl)Cl | TGI | 25.1 µM
c1ccc(COC2C3COC(O3)C(OCc3ccccc3)C2OCc2ccccc2)cc1 (centres undefined) | TGI | > 100 µM
O=C1/C(=C/c2ccccc2O)N=C(c2ccccc2)N1c1cc(C(F)(F)F)ccc1Cl | TGI | > 100 µM

# context switch: different compound, same TGI
Query: Returns the measured TGI for the input compound. Input: Cc1ccc(S(=O)(=O)NC(=O)OC23COCN2COC3)cc1
Result: > 100 µM

----------
Listed here: compounds with reported GI50 for NCI-H460 lung.

smiles-data | GI50
O=S(=O)(NCCCNc1cc(-c2cn(-c3ccccc3)nc2-c2cccc(O)c2)ccn1)c1ccc(F)cc1 | 3.64 µM
N#Cc1cc2c(cc1Cl)Sc1nnc(Nc3cccc4ccccc34)n1S2(=O)=O | 13.8 µM
COc1ccc(S(=O)(=O)N2CCNCC2)cc1OC | > 100 µM

Query: Which GI50 is listed for Nc1nc(-c2ccc(Cl)cc2)nc2c1sc(=S)n2-c1ccccc1 ?
Result: 3.31 µM

Query: // repeat for O=S(=O)(NCCCNc1nccc(-c2c(-c3ccc(F)cc3)nc3sccn23)n1)c1ccc(F)cc1 and report
Result: 5.62 µM

Query: Also, COC1=C(OC)C(=O)C(CCCCCCCCCCO)=C(C)C1=O please.
Result: 14.8 µM

Query: Thanks! And CC(=O)[CH-]C(C)=O.CC(=O)[CH-]C(C)=O.CC(=O)[CH-]C(C)=O.[Ga+3] ?
Result: > 100 µM

Query: Subsequent entry: C=CC(=O)N[C@@H](/C=C/C(=O)OCC)Cc1ccc(-c2cc(Cl)cc(Cl)c2)cc1
Result: 11.2 µM

Query: And the next one, N#C/C(=C\c1cc2ccc(N3CCC3)cc2oc1=O)C(=O)N(CC(=O)O)CC(=O)O ?
Result: > 100 µM

Query: // next record O=C1C(Nc2cccc(O)c2)=C(Sc2ccccc2)C(=O)N1Cc1ccccc1
Result: 11.3 µM

----------
# Test system: SF-268 CNS
# assay-protocol: NCI tumour cell line growth inhibition, 48 h
reported-property: TGI

Would you please look over these solved cases?
compound | reported-property | experimental-value
FC(F)(F)c1cccnc1Sc1nc2ccccc2s1 | TGI | > 100 µM
CN1CCC/C1=C1/C(=O)N(c2ccccc2)N=C1c1ccc[nH]1 | TGI | > 100 µM
Clc1nc(Cl)c2ncn(CCOCCn3cnc4c(Cl)nc(Cl)nc43)c2n1 | TGI | 0.347 µM
COC(=O)c1cc([N+](=O)[O-])cc([N+](=O)[O-])c1Cl | TGI | 25.4 µM

Query: Item C[C@@]1(OC(=O)c2cc([N+](=O)[O-])cc([N+](=O)[O-])c2)C[C@@H]2CCCC[C@@H]21 with SF-268 CNS - TGI?
Result: > 100 µM

----------
Each item that follows carries a reported TGI.
# System: SK-MEL-2 melanoma
# assay-protocol: NCI tumour cell line growth inhibition, 48 h
Numbers only; they are read as µM.

molecule | reported-property | u | experimental-value
COc1ccc2nc3cc(Cl)ccc3c(N3CCN(c4ccnc(N5CCN(C)CC5)n4)CC3)c2c1 | TGI | µM | 12.2

Query: If you can, please state the reported TGI value of C=C(CCC=C(C)C)C1CC=C(C)CC1 (stereo not given) .
Result: 37.5

Query: Let us now turn to COc1cc(C(=O)/C=C/c2c(C(F)(F)F)nc3ccccn23)cc(OC)c1OC
Result: 6.07

Query: Thanks! And O=S(=O)(NCCCNc1cc(-c2cn(-c3ccccc3)nc2-c2cccc(O)c2)ccn1)c1ccc(F)cc1 ?
Result: 9.14

Query: Same question, O=[N+]([O-])/C=C/c1ccc(Cl)cc1Cl this time
Result: 40.2

----------
# Tested on: COLO 205 colon
# assay-protocol: NCI tumour cell line growth inhibition, 48 h
reported-property: TGI (µM)
The response must be a number in µM with no trailing unit.

molecule | experimental-value
COc1ccc(C2CC(c3ccc(N(C)C)cc3)=NN2c2ccc(S(N)(=O)=O)cc2)cc1 (stereo not given) | 5.49

Now for the molecule whose TGI we want.
Query: What does the record list as TGI for Cc1cc(O)c2c3c(ccc2c1)C(=O)c1c(O)cccc1C3=O ?
Result: 12.4

----------
# Tested on: U251 CNS
Listing of entries alongside the reported GI50.

Known results for molecules:
molecule | GI50
C[C@H]1CN(C2COC2)CCN1c1ccc(Nc2cc(-c3ccnc(N4CCn5c(cc6c5CC(C)(C)C6)C4=O)c3CO)cn(C)c2=O)nc1 | 44800 nM
COc1ccc(/C=N\Nc2nc(SCC(C)C)nc(-c3ccc(OC)cc3)c2C#N)cc1 | 988 nM
CC(=O)N(O)c1ccc(/C=C/c2ccccc2)cc1 | 1230 nM
O=S(=O)(NCCCNc1cc(-c2cn(-c3ccccc3)nc2-c2cccc(O)c2)ccn1)c1ccc(F)cc1 | 2970 nM
CC(=O)[CH-]C(C)=O.CC(=O)[CH-]C(C)=O.CC(=O)[CH-]C(C)=O.[Ga+3] | > 100000 nM
COc1ccc2c(c1)C(=O)c1c-2c(=O)n(CCCN(C)C)c2cc(OC)c(OC)cc12 | 1230 nM
CC(C)N(Cc1ccc(F)cc1)c1ccc(CO)c(Cl)c1 | 370 nM
CC1CCN(CCOc2ccc(CNc3ccc4nc(CCC5CCCCC5)[nH]c4c3)cc2)CC1 | 1440 nM
CSC1=Nc2c(c(C)c(-c3ccccc3)n2COC(CO)CO)C2=NC(=O)CN12 | > 100000 nM
N#CC1C(N)=NNC12Nc1ccccc1S2 (configuration not stated) | 5840 nM

Query: Dear colleague, I am looking for the recorded GI50 of the following molecule: C=CC(=O)N[C@@H](/C=C/C(=O)OCC)Cc1ccc(-c2cc(Cl)cc(Cl)c2)cc1
Result: 17200 nM

Query: Input CCn1ccnc1C(=O)/C=C/c1ccc(CC(=O)Nc2ccc(F)cc2)cc1
Result: 1880 nM

Query: Try the molecule Cc1ccc(-n2c(-c3cc4c([nH]c5ccccc54)c(-c4cccc(O)c4)n3)n[nH]c2=S)cc1
Result: 371 nM

Query: // same read-out, input: O=C1C(Nc2cccc(O)c2)=C(Sc2ccccc2)C(=O)N1Cc1ccccc1
Result: 13000 nM

Query: For Clc1ccc([I+]c2ccc(Cl)cc2Cl)c(Cl)c1 then?
Result: 1770 nM

Query: And the next one, C=CC[N+]1(CC)CCN=C1CCCCCCCCCCCCCCCCC (configuration not stated) ?
Result: 386 nM

Query: Now this one: COc1ccc(COc2cc3oc(=O)c4cc(C(C)O)ccc4c3cc2OC)cc1 (configuration not stated)
Result: 10500 nM

----------
# System: EKVX NSCLC
# assay-protocol: NCI tumour cell line growth inhibition, 48 h
Recorded TGI by entry

Consider the reported TGI for these compounds:
compound | test-system | experimental-value
N#C/C(=C\c1cc2ccc(N3CCC3)cc2oc1=O)C(=O)N(CC(=O)O)CC(=O)O | EKVX NSCLC | > 100 µM
c1n[nH]cc1C12C3C4C5C3C1C5C42 (stereo not given) | EKVX NSCLC | > 100 µM
C=CC(=O)N[C@@H](/C=C/C(=O)OCC)Cc1ccc(-c2cc(Cl)cc(Cl)c2)cc1 | EKVX NSCLC | > 100 µM
C[C@H](NC(=O)CNC(=O)CCCCCC(=O)NCC(=O)N[C@@H](C)C(=O)OCc1ccccc1)C(=O)OCc1ccccc1 | EKVX NSCLC | > 100 µM
Cc1c(C2=NN=C(N=Nc3c(O)cccc3O)/C2=C/c2ccccc2)c(=O)n(-c2ccccc2)n1C | EKVX NSCLC | > 100 µM
COc1cc(C(=O)/C=C/c2c(C(F)(F)F)nc3ccccn23)cc(OC)c1OC | EKVX NSCLC | 6.78 µM
COCCOCOC(C)(C)[C@H](CCO)O[Si](c1ccccc1)(c1ccccc1)C(C)(C)C | EKVX NSCLC | 29.5 µM
COc1ccc2c(c1)C(=O)c1c-2c(=O)n(CCCN(C)C)c2cc(OC)c(OC)cc12 | EKVX NSCLC | 30.7 µM
CCc1ccccc1NC(=O)CC1NC(=O)CS1 (stereo not given) | EKVX NSCLC | > 100 µM

Query: Which TGI value is on record for CCCCN(C)C(=O)C1=C(C)NC(C)=C(C(=O)N(C)CCCC)C1 ?
Result: > 100 µM

----------
# Test system: HCT-116 colon
# assay-protocol: NCI tumour cell line growth inhibition, 48 h
The entries below come with measured TGI values attached.

Below, 8 compounds whose answers are already recorded.
compound | TGI
CC(C)CCC[C@@H](C)[C@H]1CC[C@H]2C3=C[C@H](OS(=O)(=O)O)[C@@]4(O)C[C@@H](O)CC[C@]4(C)[C@@]3(O)CC[C@]12C | > 100 µM
O=C(c1cc(Cc2n[nH]c(=O)c3ccccc23)ccc1F)N1CCN(C(=O)C2CC2)CC1 | > 100 µM
COc1ccc(-c2c3c(N)c4c(nc3nc3c2c(C)nn3-c2ccccc2)CCCC4)cc1 | 5.48 µM
Cn1c(C(=O)c2cccc3ccccc23)nc2ccccc21 | > 100 µM
O=c1ccn(/C=C/C(O)C(O)CO)c(=O)[nH]1 (centres undefined) | > 100 µM
O=C1C(Nc2cccc(O)c2)=C(Sc2ccccc2)C(=O)N1Cc1ccccc1 | 21.5 µM
C[C@@H](NC(=O)c1ccc(F)cc1)c1ccc2c(c1)CCN2C(=O)C1CCOCC1 | > 100 µM
O=c1ccc2ccccc2c2ccccc12 | 11.4 µM

Shift focus to the following entry.
Query: For HCT-116 colon, provide TGI of C[C@H]1C[C@H]2[C@@H]3CCC4=CC(=O)C=C[C@]4(C)C3=CC[C@]2(C)[C@@]1(O)C(=O)CO please.
Result: > 100 µM
